Each recorded value in this set is attributed to ChEMBL document CHEMBL3734675.

What MIC was measured for each of the following?
System: Klebsiella pneumoniae
Assay Overview: Antibacterial activity against Klebsiella pneumoniae 14-3 after 18 to 24 hrs by two-fold serial dilution method
Type: functional
The reply should contain only the number, in µg/mL.

// sample CCO/N=C1/CN(c2nc3c(cc2F)c(=O)c(C(=O)O)cn3C2CC2)CC1CNC1CC1 (centres undefined) , its MIC was 128

Value of measured MIC for the entry O=C(O)c1cn2c3c(c(N4C/C(=N/OCc5ccccc5)C(CNC5CC5)C4)c(F)cc3c1=O)OC[C@@H]2CF (some centres undefined) : 64

Record CC1(CNC2CC2)CN(c2nc3c(cc2F)c(=O)c(C(=O)O)cn3[C@@H]2C[C@@H]2F)C/C1=N/OCc1ccccc1 (some centres undefined) . Reported MIC: 64

----------
Please go through the items and note down their MIC.
Test system: Enterococcus faecium
Assay Overview: Antibacterial activity against Enterococcus faecium 14-2 after 18 to 24 hrs by two-fold serial dilution method
Assay type: functional
// note: answer is a bare numeric in µg/mL

Summary line: CO/N=C1/CN(c2nc3c(cc2F)c(=O)c(C(=O)O)cn3C2CC2)CC1CNC1CC1 (stereo not drawn) , Enterococcus faecium, reported MIC = 32

Reported MIC (Enterococcus faecium) for entry CO/N=C1/CN(c2nc3c(cc2F)c(=O)c(C(=O)O)cn3[C@@H]2C[C@@H]2F)CC1CNC1CC1 (stereo partly drawn) is 16

// assay Enterococcus faecium, entry O=C(O)c1cn(C2CC2)c2nc(N3C/C(=N/OCc4ccccc4)C(CNC4CC4)C3)c(F)cc2c1=O (stereo not drawn) , MIC value = 16

Item CO/N=C1/CN(c2c(F)cc3c(=O)c(C(=O)O)cn4c3c2OC[C@@H]4CF)CC1(C)CNC1CC1 (stereo partly drawn) was tested on Enterococcus faecium; the reported MIC is 8

MIC value, target or system Enterococcus faecium, for CO/N=C1/CN(c2nc3c(cc2F)c(=O)c(C(=O)O)cn3C2CC2)CC1(C)CNC1CC1 (stereo not drawn) : 4

Kindly note: Enterococcus faecium, Nc1nc(-n2cc(C(=O)O)c(=O)c3cc(F)c(N4C/C(=N/OCc5ccccc5)C(CNC5CC5)C4)nc32)c(F)cc1F (stereo not drawn) , MIC value reported: 64

Item CCO/N=C1/CN(c2nc3c(cc2F)c(=O)c(C(=O)O)cn3-c2nc(N)c(F)cc2F)CC1CNC1CC1 (stereo not drawn) was tested on Enterococcus faecium; the reported MIC is 64

----------
Tested on: Klebsiella pneumoniae
Assay Overview: Antibacterial activity against Klebsiella pneumoniae 14-3 after 18 to 24 hrs by two-fold serial dilution method
Assay type: functional
Field: MIC. Provide a value for each of the compounds that follow.
The response must be a number in µg/mL with no trailing unit.

Input CO/N=C1/CN(c2c(F)cc3c(=O)c(C(=O)O)cn4c3c2OC[C@@H]4C)CC1(C)CNC1CC1 (some centres undefined) . Output MIC: 128

response.value for CO/N=C1/CN(c2c(F)cc3c(=O)c(C(=O)O)cn4c3c2OC[C@@H]4CF)CC1(C)CNC1CC1 (some centres undefined) (field: MIC) = 128

----------
For each of the compounds below, state its MIC.
System: Pseudomonas aeruginosa
Assay Overview: Antibacterial activity against Pseudomonas aeruginosa 14-16 after 18 to 24 hrs by two-fold serial dilution method
Type: functional
Express it in µg/mL; write the number only.

Per the record, CO/N=C1/CN(c2c(F)cc3c(=O)c(C(=O)O)cn4c3c2OC[C@@H]4CF)CC1(C)CNC1CC1 (stereo partly drawn) has MIC of 64

MIC in this record for C[C@H]1COc2c(N3C/C(=N/OCc4ccccc4)C(CNC4CC4)C3)c(F)cc3c(=O)c(C(=O)O)cn1c23 (stereo partly drawn) : 32

Record CCO/N=C1/CN(c2nc3c(cc2F)c(=O)c(C(=O)O)cn3[C@@H]2C[C@@H]2F)CC1CNC1CC1 (stereo partly drawn) , field MIC: 32

For reference, reported MIC for CCO/N=C1/CN(c2nc3c(cc2F)c(=O)c(C(=O)O)cn3C2CC2)CC1CNC1CC1 (stereo not drawn) stands at 16

Recorded result, CO/N=C1/CN(c2nc3c(cc2F)c(=O)c(C(=O)O)cn3[C@@H]2C[C@@H]2F)CC1CNC1CC1 (stereo partly drawn) , MIC: 32

MIC measured on CC1(CNC2CC2)CN(c2nc3c(cc2F)c(=O)c(C(=O)O)cn3[C@@H]2C[C@@H]2F)C/C1=N/OCc1ccccc1 (stereo partly drawn) = 64

Measured MIC, CO/N=C1/CN(c2c(F)cc3c(=O)c(C(=O)O)cn4c3c2OC[C@@H]4C)CC1(C)CNC1CC1 (stereo partly drawn) : 32

----------
Tested on: Escherichia coli
Assay Overview: Antibacterial activity against extended-spectrum beta-lactamase producing Escherichia coli 14-1 after 18 to 24 hrs by two-fold serial dilution method
Assay type: functional
Property Label: MIC (µg/mL)
Lab book: enter the figure in µg/mL, no units written.

Entry O=C(O)c1cn(C2CC2)c2nc(N3C/C(=N/OCc4ccccc4)C(CNC4CC4)C3)c(F)cc2c1=O (stereo not drawn) — recorded MIC = 32

Input CO/N=C1/CN(c2c(F)cc3c(=O)c(C(=O)O)cn(C4CC4)c3c2OC)CC1CNC1CC1 (stereo not drawn) . Output MIC: 128

// recorded MIC for CCO/N=C1/CN(c2nc3c(cc2F)c(=O)c(C(=O)O)cn3-c2nc(N)c(F)cc2F)CC1CNC1CC1 (stereo not drawn) : 32

----------
Test system: Klebsiella pneumoniae
Assay Overview: Antibacterial activity against extended-spectrum beta-lactamase producing Klebsiella pneumoniae 14-19 after 18 to 24 hrs by two-fold serial dilution method
Type: functional
Property Label: MIC (µg/mL)
Give your result in µg/mL as a bare value.

Recorded MIC (compound C[C@H]1COc2c(N3CCN(C)CC3)c(F)cc3c(=O)c(C(=O)O)cn1c23.C[C@H]1COc2c(N3CCN(C)CC3)c(F)cc3c(=O)c(C(=O)O)cn1c23.O [LEVOFLOXACIN] ): 64

# compound CCO/N=C1/CN(c2c(F)cc3c(=O)c(C(=O)O)cn4c3c2OC[C@@H]4C)CC1(C)CNC1CC1 (stereo partly drawn) ; its MIC = 32

Value of measured MIC for the entry O=C(O)c1cn(C2CC2)c2nc(N3C/C(=N/OCc4ccccc4)C(CNC4CC4)C3)c(F)cc2c1=O (stereo not drawn) : 128

get_value(item= CC1(CNC2CC2)CN(c2nc3c(cc2F)c(=O)c(C(=O)O)cn3C2CC2)C/C1=N/OCc1ccccc1 (stereo not drawn) , readout=MIC) returns 128

Note to self: MIC recorded for CO/N=C1/CN(c2nc3c(cc2F)c(=O)c(C(=O)O)cn3C2CC2)CC1CNC1CC1 (stereo not drawn) was 32

// MIC lookup, compound = CO/N=C1/CN(c2nc3c(cc2F)c(=O)c(C(=O)O)cn3[C@@H]2C[C@@H]2F)CC1CNC1CC1 (stereo partly drawn) , result: 64

The reported value for CCO/N=C1/CN(c2nc3c(cc2F)c(=O)c(C(=O)O)cn3[C@@H]2C[C@@H]2F)CC1(C)CNC1CC1 (stereo partly drawn) in terms of MIC is 64

Item: O=C(O)c1cn([C@@H]2C[C@@H]2F)c2nc(N3C/C(=N/OCc4ccccc4)C(CNC4CC4)C3)c(F)cc2c1=O (stereo partly drawn) | MIC: 128

Given item CCO/N=C1/CN(c2nc3c(cc2F)c(=O)c(C(=O)O)cn3-c2nc(N)c(F)cc2F)CC1CNC1CC1 (stereo not drawn) , the value recorded as its MIC is 128

MIC recorded for this compound, CO/N=C1/CN(c2nc3c(cc2F)c(=O)c(C(=O)O)cn3C2CC2)CC1(C)CNC1CC1 (stereo not drawn) , is 64

// MIC value for CO/N=C1/CN(c2nc3c(cc2F)c(=O)c(C(=O)O)cn3[C@@H]2C[C@@H]2F)CC1(C)CNC1CC1 (stereo partly drawn) : 32

CCO/N=C1/CN(c2nc3c(cc2F)c(=O)c(C(=O)O)cn3C2CC2)CC1(C)CNC1CC1 (stereo not drawn) has a reported MIC of 64

// O=C(O)c1cn(C2CC2)c2cc(N3CCNCC3)c(F)cc2c1=O [CIPROFLOXACIN] : MIC value = 64

MIC in this record for CO/N=C1/CN(c2c(F)cc3c(=O)c(C(=O)O)cn4c3c2OC[C@@H]4C)CC1CNC1CC1 (stereo partly drawn) : 8

Form field MIC, entry Nc1nc(-n2cc(C(=O)O)c(=O)c3cc(F)c(N4C/C(=N/OCc5ccccc5)C(CNC5CC5)C4)nc32)c(F)cc1F (stereo not drawn) : 128

Query CCO/N=C1/CN(c2nc3c(cc2F)c(=O)c(C(=O)O)cn3[C@@H]2C[C@@H]2F)CC1CNC1CC1 (stereo partly drawn) yields MIC of 64

Entry C[C@H]1COc2c(N3C/C(=N/OCc4ccccc4)C(CNC4CC4)C3)c(F)cc3c(=O)c(C(=O)O)cn1c23 (stereo partly drawn) ; MIC = 64

Briefly, MIC measured for CO/N=C1/CN(c2c(F)cc3c(=O)c(C(=O)O)cn4c3c2OC[C@@H]4C)CC1(C)CNC1CC1 (stereo partly drawn) : 32

Note to self: MIC recorded for CCO/N=C1/CN(c2nc3c(cc2F)c(=O)c(C(=O)O)cn3C2CC2)CC1CNC1CC1 (stereo not drawn) was 8

Sure, the documented MIC for O=C(O)c1cn2c3c(c(N4C/C(=N/OCc5ccccc5)C(CNC5CC5)C4)c(F)cc3c1=O)OC[C@@H]2CF (stereo partly drawn) is 32

Entry CO/N=C1/CN(c2nc3c(cc2F)c(=O)c(C(=O)O)cn3-c2nc(N)c(F)cc2F)CC1CNC1CC1 (stereo not drawn) , MIC reported as 64
